Recorded measurements of growth, one per entry
System: SK-MEL-2 melanoma
PROCEDURE DETAILS: NCI-60 one-dose screen, 48 h (100 = growth as untreated, 0 = no growth, -100 = all killed)
SETTINGS: 10 µM
About 83,000 compounds went through this panel and 20% of them were active in at least one assay; those are over-represented in the sample as a whole.
Please respond with the number in % and leave the unit unwritten.

molecule=CCn1c(CSc2nc3ccccc3c(=O)n2CCc2ccccc2)n[nH]c1=S endpoint=growth experimental_result=103
molecule="CC(=O)OC1CC2C(C)(C)CCC[C@]2(C)C2=C1C(O)=C(C(C)C)C(=O)C2=O (stereo partly specified)" endpoint=growth experimental_result=-2.83
molecule=O=S(=O)(O)c1cccc(Nc2ccc3ccccc3c2)c1 endpoint=growth experimental_result=93.7

Per the record, `O=C(CI)OCC(COC(=O)CI)OC(=O)CI` has growth of 83.1

Per the record, `Cc1cc(Br)nnc1Br` has growth of 123

Per the record, `Cc1c2c(nn1C(=O)c1nn(-c3ccc(Cl)cc3)cc1O)-c1ccccc1CC2` has growth of 0.774

* * *

System: UACC-62 melanoma
PROCEDURE DETAILS: NCI-60 one-dose screen, 48 h (100 = growth as untreated, 0 = no growth, -100 = all killed)
SETTINGS: 10 µM
This is part of a sample that, as a whole, favours compounds with a hit. Of some 83,000 tested, about 20% had one in any assay.
Recorded measurements of growth, one per entry
Please respond with the number in % and leave the unit unwritten.

chemical_smiles=CCn1c(CSc2nc3ccccc3c(=O)n2CCc2ccccc2)n[nH]c1=S endpoint=growth uom=% experimental_result=85.2
chemical_smiles=O=C1/C=C/[C@@H](O)[C@@H]2C[C@@H](O)C[C@H]2/C=C/CCC[C@H](C(F)(F)F)O1 endpoint=growth uom=% experimental_result=-3.9
chemical_smiles=COc1ccc2nc3cc(Cl)ccc3c(Nc3cc(CN4CCCC4)c(O)c(CN4CCCC4)c3)c2n1 endpoint=growth uom=% experimental_result=-23.4
chemical_smiles=CC[C@@H]1NC(=O)[C@H]([C@H](O)[C@H](C)C/C=C/c2ccc(CN3C(=O)CCCC3=O)cc2)N(C)C(=O)[C@H](C(C)C)N(C)C(=O)[C@H](CC(C)C)N(C)C(=O)[C@H](CC(C)C)N(C)C(=O)[C@@H](C)NC(=O)[C@H](C)NC(=O)[C@H](CC(C)C)N(C)C(=O)[C@H](C(C)C)NC(=O)[C@H](CC(C)C)N(C)C(=O)CN(C)C1=O endpoint=growth uom=% experimental_result=59.4
chemical_smiles=CN1CCc2c(sc3nc4n(-c5ccc(Cl)cc5)c(=O)[nH]n4c(=O)c23)C1 endpoint=growth uom=% experimental_result=111

I looked up `COc1cc(C(=O)/C(C)=C/c2c[nH]c3ccccc23)cc(OC)c1OC` and its growth for UACC-62 melanoma was 40.2

I looked up `COc1ccc(C(=O)COc2cccc(/C=C3\Cc4ccccc4C3=O)c2)cc1` and its growth for UACC-62 melanoma was 61.3

* * *

Tested on: IGROV1 ovarian
PROCEDURE DETAILS: NCI-60 one-dose screen, 48 h
SETTINGS: 10 µM
This is part of a sample that, as a whole, favours compounds with a hit. Of some 83,000 tested, about 20% had one in any assay. Calls of active or inactive are those of the source. How the source made its calls: active means growth percent below 10; inactive means the rest.
Outcome field: choose from label 1 for active, label 0 for inactive

molecule=COc1cc(-c2csc(NC(=O)Nc3cc(C(F)(F)F)cc(C(F)(F)F)c3)n2)cc(OC)c1OC class_assignment="label 0"

Now look at this entry.
Query: Tell me the recorded outcome of this test for `CC(C)N(CCOc1cccc(-c2nc3sccn3c2-c2ccnc(S(C)(=O)=O)n2)c1)C(C)C` .
Reply: label 0

Origin of values: PubChem BioAssay (NCI)
